These data points were gathered from a melting point compilation (Tetko et al.; mined from patent text by program, amines drawn as free bases though some values may be those of a salt).

quantityMeasured: melting point

Some compounds with known melting point results, for comparison:
CCOC(=O)COc1ccc2c(c1)C[C@@H](NC[C@H](O)c1ccccc1)CC2; 108 to 111 °C
CCOn1c(OC)n[nH]c1=O; 57 °C
CCCCC(=O)C(Cc1ccc(C(=O)O)cc1)c1ccccc1 (configuration not stated); 140 °C
OCc1cnoc1-c1ccc2c(c1)OCO2; 92 to 93 °C
Cc1oc(-c2ccccc2)nc1COc1ccc(CON=C(CCC(=O)O)c2cccnc2)cc1; 158 to 159 °C
Nc1ccc(S(=O)(=O)N2CCN(c3ccccn3)CC2)cc1; 208 to 210 °C
CNc1c2c(nc3ccccc13)CCCC2O (configuration not stated); 160 to 161 °C
CCOC(=O)c1c(CN(C)C2CCCCC2)nc2cc(OC)c(OC)cc2c1-c1ccc(OC)c(OC)c1; 172 to 174 °C

query: May I ask what melting point has been recorded for Cc1cc(C)cc(OCC(=O)c2ccccc2Br)c1 ?
result: 74 °C

====

quantityMeasured: melting point

Some molecules with known melting point results, for comparison:
NS(=O)(=O)c1cc(C(=O)O)cc(SCc2ccccc2)c1Cl; 241 to 242 °C
Cc1nc2nccc(O)c2cc1Br; > 250 °C
C[C@@H]1CCC[C@H](C)N1Cc1ccc2cc(NC(=O)N3CCC(c4ccc(Cl)cc4)CC3)ccc2c1; 199 to 200 °C
Cc1cc(C2=NNC(=O)Cc3cc4c(cc32)OCO4)ccc1[N+](=O)[O-]; 275 to 277 °C
Clc1ccc(C=Cc2ccc(CBr)cc2)cc1; 130 to 132 °C

query: May I ask what melting point has been recorded for Cc1nc(N)cc(-n2ccc3ccccc32)n1 ?
result: 176 to 177 °C

query: May I ask what melting point has been recorded for COc1ccc(CC(=O)Nc2cccc3c2C(=O)c2c-3n[nH]c2-c2ccc(OC)cc2)cc1 ?
result: 280 °C

query: May I ask what melting point has been recorded for CC(=O)N(C(C)=O)C1=C(N2CCN(c3ccc(F)cc3)CC2)C(=O)c2ccccc2C1=O ?
result: 149 to 150 °C

query: May I ask what melting point has been recorded for O=C(c1ccccc1)c1cc2c3ccccc3[nH]c(=O)n2n1 ?
result: 308 to 311 °C

query: May I ask what melting point has been recorded for CC1(C)CN2C(=O)c3ccccc3C(O)(c3ccc(F)cc3)C2=N1 (stereo unspecified) ?
result: 168 to 170 °C

query: May I ask what melting point has been recorded for CC(C)C(=O)Nc1ccc(C(=O)O)cc1N ?
result: 159 to 160 °C

query: May I ask what melting point has been recorded for CCCCCc1c(C(C)C)nc(C(C)C)c(CO)c1-c1ccc(F)cc1 ?
result: 100 to 101 °C

====

Entries and their measured melting point follow.

query: May I ask what melting point has been recorded for O=c1c2c(Cc3ccccc3C(F)(F)F)n[nH]c2c2cccnc2n1-c1cccc(OC(F)(F)F)c1 ?
result: 252 to 255 °C

query: May I ask what melting point has been recorded for N#Cc1csc(Oc2ccc(-c3ccc(Oc4scc(C#N)c4C#N)cc3)cc2)c1C#N ?
result: 262 to 264 °C

query: May I ask what melting point has been recorded for Cc1c(C)c2c(c(C)c1NC(=O)NC(C)(C)C)C(c1ccc(C(C)C)cc1)CO2 (stereo not drawn) ?
result: 201 to 202 °C

query: May I ask what melting point has been recorded for S=C(NCc1ccccc1Cl)N1CCc2c([nH]c3ccccc23)C1c1ccc2c(c1)OCO2 (stereo not drawn) ?
result: 123 to 128 °C

query: May I ask what melting point has been recorded for Cc1nc(-c2ccc(N(C)C)cc2)sc1C(=O)O ?
result: 226 to 231 °C

query: May I ask what melting point has been recorded for O=C1CC2(C(=O)N1)C(=O)N1CCCc3cc(Cl)cc2c31 (stereo not drawn) ?
result: 268 to 269 °C

query: May I ask what melting point has been recorded for CSc1ccccc1C=NO ?
result: 88 to 89 °C

query: May I ask what melting point has been recorded for COc1ccc(-c2nc(Sc3ccc(Cl)c(Cl)c3)n(C3CCCCO3)c2-c2ccc(OC)cc2)cc1 (stereo not drawn) ?
result: 125 to 127 °C
